# assay_info: Chemical stability of lipids in ethanol (lipid purity)
# Assay type: physicochemical
# test_context: t = 96 h, 25° C.
Each record here notes measured Lipid Purity.
I only need the number, in %, no unit after it.

Worked set:
- compound_structure_string: "CCCCCCCCCOC(=O)CCCN(CCO)CCCCCCCC(=O)OC(CCCCCCCC)CCCCCCCC"
  unit_abbrev: "%"
  Lipid Purity: 97.38
- compound_structure_string: "CCCCC/C=C\\C/C=C\\CCCCCCCCN(CCO)CCCCCCCC(=O)OC(CCCCCCCC)CCCCCCCC"
  unit_abbrev: "%"
  Lipid Purity: 93.21
- compound_structure_string: "CCCCCCCCCOC(=O)CCCCCCCN(CCCCCCCC(=O)OC(CCCCCCCC)CCCCCCCC)CCN(C)C"
  unit_abbrev: "%"
  Lipid Purity: 92.07

Could you now consider this next molecule?
What Lipid Purity value was documented for this molecule, CCCCCCCCCOC(=O)CCCCCCCN(CCCCCCCC(=O)OC(CCCCCCCC)CCCCCCCC)CCCNC(=O)C(C)(C)COC ?
95.15

----------
# Test system: IP-10
# assay_info: Cytokine induction in rats after intravenous administration
# Type: in vivo, rat
# test_context: rats, 2.0 mpk, 6 hours, hEPO nanoparticle compositions
recorded_metric: IP-10
Please make sure the unit comes right after the number.

Example results:
- compound: "CCCCC/C=C\\C/C=C\\CCCCCCCCC(CCCCCCCC/C=C\\C/C=C\\CCCCC)OC(=O)CCCN(C)C [MC3, DLin-MC3-DMA, reference compound]"
  result: "688.3 pg/mL"
- compound: "CCCCCCCCCN(CCO)CCCCCCCC(=O)OC(CCCCCCCC)CCCCCCCC"
  result: "542 pg/mL"
- compound: "CCCCCCCCCOC(=O)CCCCCCCN(CCO)CCCCCCCC(=O)OC(CCCCCCCC)CCCCCCCC"
  result: "517.3 pg/mL"
- compound: "CCCCCCCCCOC(=O)CCCCCCCN(CCO)CCCCCCCOC(=O)C(CCCCCCCC)CCCCCCCC"
  result: "214.5 pg/mL"
- compound: "CCCCCC/C=C\\COC(=O)CCCCCCCN(CCO)CCCCCCCC(=O)OC(CCCCCCCC)CCCCCCCC"
  result: "323.5 pg/mL"

Which value of IP-10 has been reported for CCCCCCCCCCCOC(=O)CCCCCN(CCO)CCCCCCCC(=O)OC(CCCCCCCC)CCCCCCCC in the records?
533.5 pg/mL

----------
Here the recorded EE (%) is given for each entry.
# assay_info: Encapsulation efficiency of RNA (QUANT-IT RIBOGREEN RNA assay)
# Assay type: physicochemical
# test_context: Table 1A
The answer is to be given in %; state only the numeric part.

- molecule: "CCCCCCCCCOC(=O)CCCCCCCN(CCCCCCCC(=O)OC(CCCCCCCC)CCCCCCCC)CCCNS(C)(=O)=O"
  unit_abbrev: "%"
  readout_number: 98.6
- molecule: "CCCCCCCCC(CCCCCCCC)OC(=O)CCCCCCCN(C)CCCCCCCCCCCC(=O)OCCCCC"
  unit_abbrev: "%"
  readout_number: 96.72
- molecule: "CCCCCCCCCOC(=O)CCCCCCCN(CCCCCCCC(=O)OC(CCCCCCCC)CCCCCCCC)CC(O)CO (stereo not drawn)"
  unit_abbrev: "%"
  readout_number: 98.4
- molecule: "CCCCCCCCCOC(=O)CCCCCCCN(CCO)CCCCCCCC(=O)OC1CCC(C2CCCCC2)CC1 (stereo not drawn)"
  unit_abbrev: "%"
  readout_number: 90.7
- molecule: "CCCCCCCCCOC(=O)CCCCCCCN(CCCCCCCC(=O)OC(CCCCCCCC)CCCCCCCC)CCCN(C)S(C)(=O)=O"
  unit_abbrev: "%"
  readout_number: 92.89
- molecule: "CCCCCCCCCOC(=O)CCCCCCCN(CCCCCCCC(=O)OC(CCCCCCCC)CCCCCCCC)CCCn1ccnn1"
  unit_abbrev: "%"
  readout_number: 94.7

Look up EE (%): CCCC/C=C\CCC(CC/C=C\CCCC)OC(=O)CCCCCCCN(CCO)CCCCCC(=O)OCCCCCCCCCCC
97.40

What EE (%) value was documented for this molecule, CCCCCCCCC(CCCCCCCC)OC(=O)CCCCCCCN(CCO)CCCC(=O)OCCCC ?
89.83

I would be grateful if you could share the reported EE (%) for CCCCCCCCCN(CCCCCCCC(=O)OC(CCCCCCCC)CCCCCCCC)CCCn1ccnc1 .
95.8

Need EE (%), item CCCCCCCCCOC(=O)CCCCCCCN(CCCCCCCC(=O)OC(CCCCCCCC)CCCCCCCC)CCCNc1c(N(C)C)c(=O)c1=O
99.4

Fill in: EE (%) of CCCCCCCCCOC(=O)CCCCCCCN(CCCCCCCC(=O)OC(CCCCCCCC)CCCCCCCC)CCCNC(=O)N(C)C is ___
91.9

For the molecule shown here, CCCCCCCCCOC(=O)CCCCCCCN(CCO)CCN(CCO)CCCCCCCC(=O)OC(CCCCCCCC)CCCCCCCC , give the reported EE (%).
99.29

If you can, please state the reported EE (%) value of CCCCCCCCCOC(=O)CCCCCCCN(CCCCCCCC(=O)OC(CCCCCCCC)CCCCCCCC)CCCNC(=O)OC .
88.9

I am curious: what EE (%) value has been reported for CCCCCCCCCOC(=O)CCCCCCCN(CCO)CCCCCCCC(=O)OC(C)(C)C ?
35.70

// lookup EE (%) for CCCCCCCCCOC(=O)CCCCCCCN(CCO)CCCCCCCC(=O)Oc1ccc(CCCCC)cc1
98.1

I am curious: what EE (%) value has been reported for CCCCCCCCCOC(=O)CCCCCCCN(CCO)CCCCCCCCCOP(=O)(OCCCCCCCCC)OCCCCCCCCC ?
89.5

Requested field: EE (%). Item: CCCCCCCCCOC(=O)CCCCCCCN(CCO)CCCCCCCOC(=O)C(CCCCCCCC)CCCCCCCC
95.69

Query (molecule): CCCCCCCCCOC(=O)CCCCCCCN(CCCCCCCC(=O)OC(CCCCCCCC)CCCCCCCC)CCC(=O)O ; field requested: EE (%)
79.6

Given the entry CCCCCCCCCOC(=O)CCCCCCCN(CCO)CCCCCCCC(=O)OCCCCCCCCC , report its measured EE (%).
91.8
